Test system: DMS 273 small cell lung
Experiment: NCI tumour cell line growth inhibition, 48 h
VALUE TYPE: TGI

Some solved cases for reference:
O/N=C/c1ncccc1C1OCCO1 = > 100 µM
O=C(CC1(O)C(=O)Nc2c(Cl)ccc(Cl)c21)c1ccc(F)cc1 (stereo not given) = > 100 µM

Task: Requested field: TGI. Item: COc1ccc(NC(=O)CC(=O)N/N=C/c2ccc(N(CCC#N)S(C)(=O)=O)cc2)cc1
Output: > 100 µM

Task: Requested field: TGI. Item: C[C@@H]1OC(=O)N2CCCC(=C3SCCCS3)C12 (stereo not given in full)
Output: > 100 µM

Task: Requested field: TGI. Item: COC1(OC)CC2OC1C1N=NN(C(=O)OC(C)(C)C)C21 (stereo not given)
Output: > 100 µM

Task: Requested field: TGI. Item: CCN(CC)C(c1ccc(N(C)C)cc1)C(c1ccc(N(C)C)cc1)N(CC)CC (stereo not given)
Output: > 73 µM

Task: Requested field: TGI. Item: O=C(CCN(C(=O)O)S(=O)(=O)c1ccc(NC(=O)c2ccccc2)cc1)NC1CCCCC1
Output: > 100 µM

* * *

Test system: OVCAR-3 ovarian
Experiment: NCI tumour cell line growth inhibition, 48 h
VALUE TYPE: TGI

Some solved cases for reference:
CCOC(=O)CCCNC(=O)CCCCC(=O)N(C)C = > 100 µM
COc1ccc(-c2nc(-c3nc4ccc(Cl)cc4[nH]3)c3ccccn23)cc1 = 6.69 µM
COC(=O)C1=C(O)C(C(=O)OC)[C@]2(O)[C@H](C(=O)OC)[C@H]1C[C@@H](c1ccc(OC)c(OC)c1)[C@H]2C(=O)OC (some centres not stated) = 62.5 µM

Task: Requested field: TGI. Item: CC(=O)N(C(C)=O)n1c(Cc2ccc(Cl)cc2)n[nH]c1=O
Output: > 100 µM

Task: Requested field: TGI. Item: CCC(C)(C)C1CCC2c3c([nH]c4ccccc34)C3C(=O)N(c4ccc(OC)cc4)C(=O)C3C2C1 (configuration not stated)
Output: 7.28 µM

Task: Requested field: TGI. Item: CC(C)(C)/C(=N\Nc1nc2ccccc2[nH]1)c1ccccn1
Output: 73.3 µM

Task: Requested field: TGI. Item: CC(=O)OCC1OC(NC(=S)N/N=C2\CC(c3ccccc3)Oc3ccccc32)C(OC(C)=O)C(OC(C)=O)C1OC(C)=O (configuration not stated)
Output: > 100 µM

Task: Requested field: TGI. Item: N#Cc1c(=O)n(-c2ccccc2)c(O)c2c(N)n[nH]c12
Output: > 100 µM

* * *

System: KM12 colon
Assay: NCI tumour cell line growth inhibition, 48 h
VALUE TYPE: GI50

Some solved cases for reference:
O=C(O)/C=C(\c1nc2ccc([N+](=O)[O-])cc2[nH]1)c1cc(Cl)ccc1O = 2.84 µM
CC[C@@]1(c2ccccc2)C2=C(CC(C)(C)CC2=O)Nc2[nH]ncc21 = > 100 µM
NC(=O)NS(=O)(=O)c1ccc(N2N=C(C(F)(F)F)CC2c2cc(C(F)(F)F)cc(C(F)(F)F)c2)cc1 (stereo not given) = 1.83 µM
O=C(Nc1ccncc1)C(=O)c1cn(S(=O)(=O)c2cccc(F)c2)c2ccccc12 = 3.04 µM

In the following, a different molecule is considered.
Task: Requested field: GI50. Item: CCCCCCCCn1ccc2cc(NC(=O)Cn3cc(CN4CCCC4)nn3)ccc21
Output: 1.95 µM

* * *

System: SNB-75 CNS
Test: NCI tumour cell line growth inhibition, 48 h
Examples of molecules with documented TGI follow.

Some solved cases for reference:
O=[N+]([O-])c1ccc(C=NC2CCCCC2)cc1 = > 100 µM
C[C@@H]1OC(=O)N2CCCC(=C3SCCCS3)C12 (some centres not stated) = > 100 µM
Cc1ccc(-c2nc3nc(-c4ccccc4)nc(N4CCCNCC4)c3o2)cc1 = 2.68 µM
CN(C)c1ccc(/C=C2/NC(=S)NC2=O)cc1 = > 100 µM
Cc1ccc2c(c1)Sc1c(ccc3ccccc13)N2 = > 100 µM
CC/C=C\C[C@@H](O)C/C=C1/C(=O)C=C[C@H]1C/C=C\CCCC(=O)OC = 19.6 µM
NC(=S)N1N=C2c3ccccc3CC[C@@H]2[C@@H]1c1ccccc1 = 35.6 µM
CCOC(=O)N(NC(=O)NC(C)C)c1ccccc1 = > 100 µM
O=C(O)C(=Cc1ccc(-c2ccccc2)cc1)C(=O)O = 28 µM
CCN(CC)CCCC(C)Nc1c2ccc(Cl)cc2nc2ccc(O)cc12 (configuration not stated) = 3.86 µM

Task: Requested field: TGI. Item: COc1ccc2c(c1)-c1nc(=S)n(CCCN(C)C)c3ccc([N+](=O)[O-])c(c13)N2
Output: 22.8 µM

Task: Requested field: TGI. Item: COC(=O)Nc1nc2ccc(Oc3ccc(NC(=O)Nc4cc(C(F)(F)F)ccc4F)cc3)cc2s1
Output: > 23.8 µM

Task: Requested field: TGI. Item: CCOC1Oc2ccc(C)cc2C(=O)/C1=C\Nc1ccc(C(N)=O)cc1 (configuration not stated)
Output: > 100 µM

Task: Requested field: TGI. Item: O=C(NC12CC3CC(CC(F)(C3)C1)C2)c1ccccc1
Output: > 100 µM

* * *

System: ACHN renal
Assay: NCI tumour cell line growth inhibition, 48 h
Examples of compounds with documented TGI follow.

Task: I'm curious: which TGI was measured for CCOC(=O)NC(=O)c1cn(CCNCCO)c(=O)[nH]c1=O tested on ACHN renal?
Output: > 100 µM

Task: I'm curious: which TGI was measured for CCC[CH2][Sn]1([CH2]CCC)[O]C(=O)CN=Cc2c(ccc3ccccc23)[O]1 tested on ACHN renal?
Output: 1.05 µM

Task: I'm curious: which TGI was measured for O=C(O)CCNC1CCCCC1 tested on ACHN renal?
Output: > 100 µM

Task: I'm curious: which TGI was measured for COc1ccc(-c2onc(N)c2-c2cc(OC)c3c(c2)OCO3)cc1 tested on ACHN renal?
Output: > 100 µM

Task: I'm curious: which TGI was measured for C#CCNC(=O)c1cccc2c1cc(C)n2-c1nc2c(c(NCc3ccccc3)n1)CCCC2 tested on ACHN renal?
Output: 0.11 µM

* * *

Test system: SW-620 colon
Experiment: NCI tumour cell line growth inhibition, 48 h; in the data active = GI50 below about 0.43 µM; inactive = the rest
Your reply should match one of these outcome classes. Y for active, N for inactive

COc1ccc(C(=O)C#Cc2cnc(OC)nc2OC)cc1 = N

Task: I'd appreciate the recorded outcome for Nc1nc2c(nnn2C2CC(O)C(CO)O2)c(=O)[nH]1 (stereo unspecified) from this test.
Output: N

Task: I'd appreciate the recorded outcome for CCCCCCCCn1ccc2cc(NC(=O)Cn3cc(CN4CCCC4)nn3)ccc21 from this test.
Output: N

Task: I'd appreciate the recorded outcome for COc1ccc2c(c1)C(=O)c1c-2n(CCCn2ccnc2)c(=O)c2cc([N+](=O)[O-])ccc12 from this test.
Output: Y

Task: I'd appreciate the recorded outcome for Cc1ccc(-c2nc3nc(-c4ccccc4)nc(N4CCCNCC4)c3o2)cc1 from this test.
Output: N

Task: I'd appreciate the recorded outcome for O=C1Nc2ccccc2C1(c1ccc(O)cc1)c1ccc(O)cc1 from this test.
Output: N

* * *

System: IGROV1 ovarian
Assay: NCI tumour cell line growth inhibition, 48 h
VALUE TYPE: TGI

COc1cc2ncn(-c3cc(OCc4cccs4)c(C(N)=O)s3)c2cc1OC = > 25 µM
c1ccc2c(c1)CC1=C(O2)c2ccccc2OC1 = > 100 µM
O=c1c2ccccc2[nH]c2c(Cl)cc(Cl)c(NC3CCCCC3)c12 = 96.2 µM
COc1ccccc1N(CN1C(=O)CCC1C(=O)O)C(C)=O (stereo not drawn) = > 100 µM
Nc1cccc(S(=O)(=O)NCC(=O)O)c1 = > 100 µM
CC(C)(C)OC(=O)CN1C(=O)CC1CC(=O)c1ccccc1 (stereo not drawn) = 32.2 µM
COc1ccc2nc3c(C(=O)NCCN(C)C)cccc3nc2c1 = 93.5 µM
COCCCNC(=O)C1C(=O)C(=O)N(CCCOC)C1=O (stereo not drawn) = > 100 µM

Task: I'm curious: which TGI was measured for O=C(Cn1c2c(c3ccccc31)CCCC2)N1CCCC1 tested on IGROV1 ovarian?
Output: > 100 µM

Task: I'm curious: which TGI was measured for Nc1nccc(-c2c(-c3ccc(F)cc3)ncn2C2CCC(O)CC2)n1 (stereo not drawn) tested on IGROV1 ovarian?
Output: 24.8 µM

Task: I'm curious: which TGI was measured for CCOC(=O)CCCNC(=O)CCCCC(=O)N(C)C tested on IGROV1 ovarian?
Output: > 100 µM

Task: I'm curious: which TGI was measured for O=c1[nH]nc(-c2ccccc2)n1-c1ccncc1 tested on IGROV1 ovarian?
Output: > 100 µM

Task: I'm curious: which TGI was measured for Cc1ccc([N+](=O)[O-])cc1S(=O)(=O)Nc1ccc(C2=NN(c3ccc([N+](=O)[O-])cc3[N+](=O)[O-])C(c3cccs3)C2)cc1 (stereo not drawn) tested on IGROV1 ovarian?
Output: 53.7 µM

Task: I'm curious: which TGI was measured for O=C(N/C(=C\c1cccc([N+](=O)[O-])c1)c1nc2ccc([N+](=O)[O-])cc2[nH]1)c1ccccc1 tested on IGROV1 ovarian?
Output: 74.4 µM
